Values from paper PMC6098951

Exercise: for every item that follows, state its recorded melting point.

[ask] // lookup melting point for `O=C(NC12CC3CC(CC(C3)C1)C2)c1ccc(O)c(O)c1`
[reply] 209 to 211 °C

[ask] Which melting point value is on record for `O=C(OCC12CC3CC(CC(C3)C1)C2)c1ccc(O)c(O)c1` ?
[reply] 212 to 217 °C

[ask] What does the data say about its melting point? Entry: `COc1cc(C(=O)OC23CC4CC(CC(C4)C2)C3)ccc1O`
[reply] 136 to 139 °C

[ask] Return reported melting point; argument: `O=C(OC12CC3CC(CC(C3)C1)C2)c1ccc(O)c(O)c1`
[reply] 170 to 173 °C

[ask] Sample `O=C(/C=C/c1ccc(O)c(O)c1)OC12CC3CC(CC(C3)C1)C2` — what was its melting point?
[reply] 191 to 196 °C

[ask] Request the reported melting point associated with CC12CCC(C1)C(C)(C)[C@H]2OC(=O)c1cc(O)c(O)c(O)c1 (stereo partly drawn)
[reply] 171 to 173 °C

[ask] Quick one: melting point of `O=C(/C=C/c1ccc(O)c(O)c1)OCC12CC3CC(CC(C3)C1)C2` ?
[reply] 161 to 164 °C

[ask] Query: melting point; subject: CC12CCC(C1)C(C)(C)[C@H]2OC(=O)c1ccc(O)c(O)c1 (stereo partly drawn)
[reply] 58 to 61 °C

[ask] Bench note: what melting point did CC1(C)C2CCC1(C)[C@H](OC(=O)c1ccc(O)c(O)c1)C2 (stereo partly drawn) show?
[reply] 40 to 42 °C

[ask] What value of melting point has been recorded for this entry: COc1cc(C(=O)O[C@H]2C3(C)CCC(C3)C2(C)C)ccc1O (stereo partly drawn)
[reply] 120 to 122 °C

[ask] Item under review: `COc1cc(/C=C/C(=O)NC23CC4CC(CC(C4)C2)C3)ccc1O` . Reported melting point?
[reply] 130 to 132 °C

[ask] Quick one: melting point of `O=C(OC12CC3CC(CC(C3)C1)C2)c1cc(O)c(O)c(O)c1` ?
[reply] 195 to 199 °C

---

Biological target: SLO (soybean 15-lipoxygenase: L1; EC 1,13,11,12) (Glycine max)
Test: 15-lipoxygenase inhibitory assessment (peroxide formation method)
Assay type: biochemical
Conditions: SLO, linoleic acid substrate, pH 7.0, absorbance 598 nm; ± SEM; read-out: Lipoxygenase inhibition IC50
pIC50: −log10 of the molar value.
Response key: TRUE means pIC50 >= 4; FALSE means pIC50 < 4.

[ask] Could you please find out whether `O=C(OC12CC3CC(CC(C3)C1)C2)c1cc(O)c(O)c(O)c1` has pIC50 that meets 4 or exceeds it?
[reply] TRUE

[ask] Is pIC50 at least 4? Consider CC12CCC(C1)C(C)(C)[C@H]2OC(=O)c1ccc(O)c(O)c1 (some centres unmarked)
[reply] TRUE

[ask] Hello, I need to know if CC12CCC(C1)C(C)(C)[C@H]2OC(=O)c1cc(O)c(O)c(O)c1 (some centres unmarked) has measured pIC50 not below 4. Thanks!
[reply] TRUE

[ask] For this compound, is measured pIC50 4 or higher? `COc1cc(C(=O)OC23CC4CC(CC(C4)C2)C3)ccc1O`
[reply] FALSE

[ask] Reported pIC50 at or above 4? CCOC(=O)c1ccc(O)c(O)c1 [2p, ethyl catechuate]
[reply] TRUE

[ask] hey, is pIC50 for this one >= 4? COc1cc(/C=C/C(=O)O[C@H]2C3(C)CCC(C3)C2(C)C)ccc1O (some centres unmarked)
[reply] FALSE

[ask] Check this compound for pIC50 at or above 4: `O=C(OCC12CC3CC(CC(C3)C1)C2)c1ccc(O)c(O)c1`
[reply] TRUE

[ask] Item `O=C(/C=C/c1ccc(O)c(O)c1)OC12CC3CC(CC(C3)C1)C2` with pIC50 of 4 or above?
[reply] TRUE

[ask] # check: pIC50 of Cc1nc(N2CCN(C)CC2)nc2c1Sc1ccccc1N2 [4-MMPB, reference compound] is greater than or equal to 4
[reply] TRUE

[ask] Record CC12CCC(C1)C(C)(C)[C@H]2OC(=O)/C=C/c1ccc(O)c(O)c1 (some centres unmarked) ; criterion: pIC50 no lower than 4. Met?
[reply] TRUE

[ask] Could you verify whether the entry COc1cc(C(=O)O[C@H]2C3(C)CCC(C3)C2(C)C)ccc1O (some centres unmarked) shows pIC50 of no less than 4?
[reply] TRUE

[ask] API: above_or_equal(metric=pIC50, cutoff=4) for item `O=C(NC12CC3CC(CC(C3)C1)C2)c1ccc(O)c(O)c1`
[reply] TRUE

[ask] Form field: pIC50 at least 4? Entry: COc1cc(C(=O)O[C@@H]2CC3CCC2(C)C3(C)C)ccc1O (some centres unmarked)
[reply] FALSE

[ask] Form field: pIC50 at least 4? Entry: `O=C(/C=C/c1ccc(O)c(O)c1)OCC12CC3CC(CC(C3)C1)C2`
[reply] TRUE

[ask] Hi, just wondering whether COc1cccc(C(=O)O[C@H]2C3(C)CCC(C3)C2(C)C)c1 (some centres unmarked) shows pIC50 of 4 or higher.
[reply] FALSE

[ask] State whether the measured pIC50 reaches 4, counting equality as reaching it, for COc1ccc(C(=O)O[C@H]2C3(C)CCC(C3)C2(C)C)cc1OC (some centres unmarked)
[reply] FALSE

[ask] Exam item: decide whether the reported pIC50 for `COc1cc(/C=C/C(=O)NC23CC4CC(CC(C4)C2)C3)ccc1O` is at least 4.
[reply] FALSE
